# Tested on: human macrophage inflammatory protein 3-alpha mRNA
# PROCEDURE_DETAILS: Antisense inhibition of human macrophage inflammatory protein 3-alpha mRNA levels, quantitative real-time PCR (Table 1 screen)
# Type: cell-based
# CONDITION_CONTEXT: averages from two experiments, oligonucleotide concentration not given
Strand notation (5' to 3'): a small letter for the sugar, then the base; units joined by * are phosphorothioate-linked, units joined directly phosphodiester-linked; [ ] holds rarer units or linkages, { } end groups; capitals alone tell only the bases. e = 2'-O-(2-methoxyethyl) (MOE); [5mC] = 5-methylcytosine; d = 2'-deoxy (DNA)
Mark not met for % INHIB (inhibition of human macrophage inflammatory protein 3-alpha mRNA levels) values under 20%, and met for everything at or above.

150678 (antisense eA*eG*eT*eG*eT*dT*dG*dA*dG*dT*dA*d[5mC]*d[5mC]*d[5mC]*dA*eG*eT*eT*e[5mC]*eT) [compound 150678] ... met
150687 (antisense eG*eT*e[5mC]*e[5mC]*eA*dA*dT*dT*d[5mC]*d[5mC]*dA*dT*dT*d[5mC]*d[5mC]*eA*eG*eA*eA*eA) [compound 150687] ... met
150677 (antisense eT*eA*e[5mC]*e[5mC]*e[5mC]*dA*dG*dT*dT*d[5mC]*dT*dT*dT*dG*dG*eG*eA*eG*eT*eG) [compound 150677] ... not met

[ask] API: above_or_equal(metric=% INHIB (inhibition of human macrophage inflammatory protein 3-alpha mRNA levels), cutoff=20%) for item 150681 (antisense eT*eG*eG*eT*eT*dT*dT*dT*dA*dG*d[5mC]*dT*d[5mC]*dA*dA*eA*eG*eA*eA*e[5mC]) [compound 150681]
[reply] met

[ask] API: above_or_equal(metric=% INHIB (inhibition of human macrophage inflammatory protein 3-alpha mRNA levels), cutoff=20%) for item 150686 (antisense eA*eT*eT*e[5mC]*e[5mC]*dA*dG*dA*dA*dA*dA*dG*d[5mC]*d[5mC]*dA*e[5mC]*eA*eG*eT*eT) [compound 150686]
[reply] not met

[ask] API: above_or_equal(metric=% INHIB (inhibition of human macrophage inflammatory protein 3-alpha mRNA levels), cutoff=20%) for item 150697 (antisense eG*e[5mC]*eA*eA*eG*dA*dA*dA*dG*dT*d[5mC]*d[5mC]*dA*dT*dA*eT*eA*eA*eT*e[5mC]) [compound 150697]
[reply] not met

###

# Test system: human macrophage inflammatory protein 3-alpha mRNA
# PROCEDURE_DETAILS: Antisense inhibition of human macrophage inflammatory protein 3-alpha mRNA levels, quantitative real-time PCR (Table 1 screen)
# Format: cell-based
# CONDITION_CONTEXT: averages from two experiments, oligonucleotide concentration not given
Strand notation (5' to 3'): a small letter for the sugar, then the base; units joined by * are phosphorothioate-linked, units joined directly phosphodiester-linked; [ ] holds rarer units or linkages, { } end groups; capitals alone tell only the bases. e = 2'-O-(2-methoxyethyl) (MOE); [5mC] = 5-methylcytosine; d = 2'-deoxy (DNA)
OUTCOME_MEASURE: % INHIB (inhibition of human macrophage inflammatory protein 3-alpha mRNA levels)

Here is how some substances turned out for % INHIB (inhibition of human macrophage inflammatory protein 3-alpha mRNA levels).
150688 (antisense e[5mC]*eT*eT*eG*eG*dG*d[5mC]*dT*dA*dT*dG*dT*d[5mC]*d[5mC]*dA*eA*eT*eT*e[5mC]*e[5mC]) [compound 150688] ... 46%
ISIS 150682: 2′-MOE gapmer, phosphorothioate, 5-methylcytidines; GTACAGCACATGGTTTTAG ... at least 20%
150685 (antisense eG*eT*eG*eT*eG*dA*dA*dA*dG*dA*dT*dG*dA*dT*dA*eG*e[5mC]*eA*eT*eT) [compound 150685] ... 0%
ISIS 150678: 2′-MOE gapmer, phosphorothioate, 5-methylcytidines; AGTGTTGAGTACCCAGTTCT (antisense eA*eG*eT*eG*eT*dT*dG*dA*dG*dT*dA*d[5mC]*d[5mC]*d[5mC]*dA*eG*eT*eT*e[5mC]*eT) ... at least 20%
ISIS 150689: 2′-MOE gapmer, phosphorothioate, 5-methylcytidines; CAAGGTTCTTTCTGTTCTTG (antisense e[5mC]*eA*eA*eG*eG*dT*dT*d[5mC]*dT*dT*dT*d[5mC]*dT*dG*dT*eT*e[5mC]*eT*eT*eG) ... at least 20%
150692 (antisense eG*e[5mC]*eA*eA*eT*dA*dT*dG*dA*dA*dT*d[5mC]*dA*dA*d[5mC]*eT*eT*e[5mC]*eA*eT) [compound 150692] ... 39%
150694 (antisense eA*eT*eG*eT*eG*dA*dT*dG*d[5mC]*dT*dT*dA*dA*dA*d[5mC]*eA*eA*eA*eG*e[5mC]) [compound 150694] ... 30%
150695 (antisense e[5mC]*eA*e[5mC]*eA*eG*dA*dA*dA*dA*d[5mC]*d[5mC]*dT*dA*d[5mC]*dA*eG*e[5mC]*eT*eA*eT) [compound 150695] ... 11%

% INHIB (inhibition of human macrophage inflammatory protein 3-alpha mRNA levels) reading for 150696 (antisense eG*e[5mC]*eA*e[5mC]*eT*dA*dA*dA*d[5mC]*d[5mC]*dA*dA*dA*dA*dT*eA*eG*e[5mC]*eT*eT) [compound 150696] : 27%

% INHIB (inhibition of human macrophage inflammatory protein 3-alpha mRNA levels) reading for ISIS 150681: 2′-MOE gapmer, phosphorothioate, 5-methylcytidines; TGGTTTTTAGCTCAAAGAAC (antisense eT*eG*eG*eT*eT*dT*dT*dT*dA*dG*d[5mC]*dT*d[5mC]*dA*dA*eA*eG*eA*eA*e[5mC]) : at least 20%

% INHIB (inhibition of human macrophage inflammatory protein 3-alpha mRNA levels) reading for 150689 (antisense e[5mC]*eA*eA*eG*eG*dT*dT*d[5mC]*dT*dT*dT*d[5mC]*dT*dG*dT*eT*e[5mC]*eT*eT*eG) [compound 150689] : 41%

% INHIB (inhibition of human macrophage inflammatory protein 3-alpha mRNA levels) reading for ISIS 150680: 2′-MOE gapmer, phosphorothioate, 5-methylcytidines; CTCAAAGAACAGATCTGCTC (antisense e[5mC]*eT*e[5mC]*eA*eA*dA*dG*dA*dA*d[5mC]*dA*dG*dA*dT*d[5mC]*eT*eG*e[5mC]*eT*e[5mC]) : at least 20%
